B1: PTPRD (parent)
chain: PVVSMDLDPQPITDEEEGLIWVVG

variants of: B1; test: protein stability index of a GFP-peptide fusion (GPS, HEK-293T) (PSI 1-6); higher = more stable; details: c terminus: a fixed tail appended;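 further: lentivirally expressed fusions sorted by FACS into six bins by GFP to DsRed ratio, PSI derived from sequencing read proportions per bin multiplied by bin number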
measurement-name: protein stability index

[[record]]
variant_designation = "E17G"
measurement_name = "protein stability index"
result_number = 3.34

[[record]]
variant_designation = "V2A"
measurement_name = "protein stability index"
result_number = 4.31

[[record]]
variant_designation = "E17P"
measurement_name = "protein stability index"
result_number = 2.38

[[record]]
variant_designation = "L7W"
measurement_name = "protein stability index"
result_number = 3.52

[[record]]
variant_designation = "P9V"
measurement_name = "protein stability index"
result_number = 3.19

[[record]]
variant_designation = "V23N"
measurement_name = "protein stability index"
result_number = 4.45

[[record]]
variant_designation = "V23M"
measurement_name = "protein stability index"
result_number = 4.55

[[record]]
variant_designation = "G24I"
measurement_name = "protein stability index"
result_number = 1.54

[[record]]
variant_designation = "V3M"
measurement_name = "protein stability index"
result_number = 3.61

[[record]]
variant_designation = "D8V"
measurement_name = "protein stability index"
result_number = 3.25

[[record]]
variant_designation = "P11A"
measurement_name = "protein stability index"
result_number = 4.67

[[record]]
variant_designation = "V3I"
measurement_name = "protein stability index"
result_number = 3.49

[[record]]
variant_designation = "V3N"
measurement_name = "protein stability index"
result_number = 3.92

[[record]]
variant_designation = "V2H"
measurement_name = "protein stability index"
result_number = 3.67

[[record]]
variant_designation = "E17R"
measurement_name = "protein stability index"
result_number = 2.75

[[record]]
variant_designation = "E17M"
measurement_name = "protein stability index"
result_number = 1.69

[[record]]
variant_designation = "V22W"
measurement_name = "protein stability index"
result_number = 3.79

[[record]]
variant_designation = "V23S"
measurement_name = "protein stability index"
result_number = 5.01

[[record]]
variant_designation = "D6N"
measurement_name = "protein stability index"
result_number = 4.53

[[record]]
variant_designation = "V2I"
measurement_name = "protein stability index"
result_number = 3.05

[[record]]
variant_designation = "V2G"
measurement_name = "protein stability index"
result_number = 4.23

[[record]]
variant_designation = "G18R"
measurement_name = "protein stability index"
result_number = 3.28


Origin of measurements: the supplement of paper PMC10567573
